Assay: Inhibition of tubulin polymerization at 10 mg/mL by tubulin assembly assay
Parameters: scale not given: the % may be the effect or the level left
Property label: Activity (%)
State the answer as a number, implicitly in %.

# return recorded Activity for input `C/C=C(\C)C(=O)O[C@H]1CC(C)(C)C[C@H]2C3=CC[C@@H]4[C@@]5(C)CC[C@H](O[C@@H]6O[C@H](C(=O)O)[C@@H](O)[C@H](O[C@@H]7O[C@H](CO)[C@H](O)[C@H](O)[C@H]7O[C@@H]7O[C@@H](C)[C@H](O)[C@@H](O)[C@H]7O[C@@H]7O[C@@H](C)[C@H](O)[C@@H](O)[C@H]7O)[C@H]6O[C@@H]6O[C@H](CO)[C@H](O)[C@H](O)[C@H]6O)C(C)(C)[C@@H]5CC[C@@]4(C)[C@]3(C)C[C@@H](O)[C@@]12CO`
41

----------
Test system: A549
Assay: Cytotoxicity against human A549 cells by MTT assay
Assay type: functional, cell-based
Active and inactive are the calls of the source. The rule behind the calls is not given here.
Property label: Activity

Compound string	Property label	Result
C/C=C(\C)C(=O)O[C@H]1CC(C)(C)C[C@H]2C3=CC[C@@H]4[C@@]5(C)CC[C@H](O[C@@H]6O[C@H](C(=O)O)[C@@H](O)[C@H](O[C@@H]7O[C@H](CO)[C@H](O)[C@H](O)[C@H]7O[C@@H]7O[C@@H](C)[C@H](O)[C@@H](O)[C@H]7O[C@@H]7O[C@@H](C)[C@H](O)[C@@H](O)[C@H]7O)[C@H]6O[C@@H]6O[C@H](CO)[C@H](O)[C@H](O)[C@H]6O)C(C)(C)[C@@H]5CC[C@@]4(C)[C@]3(C)C[C@@H](O)[C@@]12CO	Activity	inactive
C/C=C(\C)C(=O)O[C@H]1CC(C)(C)C[C@H]2C3=CC[C@@H]4[C@@]5(C)CC[C@H](O[C@@H]6O[C@H](C(=O)O)[C@@H](O)[C@H](O[C@@H]7O[C@H](CO)[C@H](O)[C@H](O)[C@H]7O[C@@H]7O[C@@H](C)[C@H](O)[C@@H](O)[C@H]7O[C@@H]7O[C@@H](C)[C@H](O)[C@@H](O)[C@H]7O)[C@H]6O[C@@H]6O[C@H](CO)[C@@H](O)[C@H](O)[C@H]6O)C(C)(C)[C@@H]5CC[C@@]4(C)[C@]3(C)C[C@@H](OC(C)=O)[C@@]12CO	Activity	inactive

----------
Test system: A549
Assay: Cytotoxicity against human A549 cells by MTT assay
Format: functional, cell-based
The source made the active and inactive calls. The calls are words filed in the database; no cut-off is given here.
Property label: Activity

Compound string	System name	Property label	Result
C/C=C(\C)C(=O)O[C@H]1CC(C)(C)C[C@H]2C3=CC[C@@H]4[C@@]5(C)CC[C@H](O[C@@H]6O[C@H](C(=O)O)[C@@H](O)[C@H](O[C@@H]7O[C@H](CO)[C@H](O)[C@H](O)[C@H]7O[C@@H]7O[C@@H](C)[C@H](O)[C@@H](O)[C@H]7O[C@@H]7O[C@@H](C)[C@H](O)[C@@H](O)[C@H]7O)[C@H]6O[C@@H]6O[C@H](CO)[C@H](O)[C@H](O)[C@H]6O)C(C)(C)[C@@H]5CC[C@@]4(C)[C@]3(C)C[C@@H](OC(C)=O)[C@@]12CO	A549	Activity	inactive
CCC/C=C\C(=O)O[C@H]1CC(C)(C)C[C@H]2C3=CC[C@@H]4[C@@]5(C)CC[C@H](O[C@@H]6O[C@H](C(=O)O)[C@@H](O)[C@H](O[C@@H]7O[C@H](CO)[C@H](O)[C@H](O)[C@H]7O[C@@H]7O[C@@H](C)[C@H](O)[C@@H](O)[C@H]7O[C@@H]7O[C@@H](C)[C@H](O)[C@@H](O)[C@H]7O)[C@H]6O[C@@H]6O[C@H](CO)[C@@H](O)[C@H](O)[C@H]6O)C(C)(C)[C@@H]5CC[C@@]4(C)[C@]3(C)C[C@@H](O)[C@@]12CO	A549	Activity	inactive
CCC/C=C\C(=O)O[C@H]1CC(C)(C)C[C@H]2C3=CC[C@@H]4[C@@]5(C)CC[C@H](O[C@@H]6O[C@H](C(=O)O)[C@@H](O)[C@H](O[C@@H]7O[C@H](CO)[C@H](O)[C@H](O)[C@H]7O[C@@H]7O[C@@H](C)[C@H](O)[C@@H](O)[C@H]7O[C@@H]7O[C@@H](C)[C@H](O)[C@@H](O)[C@H]7O)[C@H]6O[C@@H]6O[C@H](CO)[C@H](O)[C@H](O)[C@H]6O)C(C)(C)[C@@H]5CC[C@@]4(C)[C@]3(C)C[C@@H](O)[C@@]12CO	A549	Activity	inactive

Source listed as ChEMBL document CHEMBL1144053.
